Numbers sourced from patent EP4610269A1.

Target: human uPAR (uPAR-Fc) (Homo sapiens, UniProt Q03405)
Construct: comprising amino acids Leu23-Arg303 according to UniProt entry Q03405.1; purchased R&D Systems 10378-UK-100
Sequence (Q03405 23-303): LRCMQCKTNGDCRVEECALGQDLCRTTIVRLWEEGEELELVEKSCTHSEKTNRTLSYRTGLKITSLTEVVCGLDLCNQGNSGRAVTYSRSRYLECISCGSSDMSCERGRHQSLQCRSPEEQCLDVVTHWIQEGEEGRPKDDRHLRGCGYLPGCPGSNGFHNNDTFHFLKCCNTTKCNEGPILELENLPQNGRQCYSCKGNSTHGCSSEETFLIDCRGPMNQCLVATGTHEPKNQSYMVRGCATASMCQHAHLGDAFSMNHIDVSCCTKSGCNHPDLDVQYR
Experiment: Surface plasmon resonance (SPR) assay, single cycle kinetics
Format: binding
Conditions: pKD category for uPAR SPR activity assay; uPAR-Fc on Protein A-Chip, 25°C; read-out: pKD CAT (converted)
Where a SMILES comes first, the peptide text is derived from it. Bridges are numbered along the chain shown (N, C = ends). [ ]: non-standard residue; d: D form. The star is where a group is joined. DOTA = O=C(O)CN1CCN(CC(=O)O)CCN(CC(=O)*)CCN(CC(=O)O)CC1; Hyp = O=C(O)[C@@H]1C[C@@H](O)CN1; Cit = NC(=O)NCCC[C@H](N)C(=O)O; Butoxycarbonyl = CCCCOC(=O)*; Nva = CCC[C@H](N)C(=O)O; AEEA = NCCOCCOCC(=O)O

Compound: CCCCOC(=O)N[C@H]1CSSC[C@@H](C(N)=O)NC(=O)[C@H](CCC)NC(=O)[C@H]([C@@H](C)CC)NC(=O)[C@@H]2C[C@@H](O)CN2C(=O)[C@@H]2C[C@@H](O)CN2C(=O)[C@H](Cc2ccccc2)NC(=O)[C@H](Cc2ccc(O)cc2)NC(=O)[C@H](CCCCNC(=O)CN2CCN(CC(=O)O)CCN(CC(=O)O)CCN(CC(=O)O)CC2)NC(=O)[C@H]([C@@H](C)O)NC1=O [UPAR-128] (Butoxycarbonyl-CTK(DOTA)YF[Hyp][Hyp]I[Nva]C-NH2; disulfide 1-10)
Assay target: human uPAR (uPAR-Fc) (Homo sapiens, UniProt Q03405)
Kd: < 1.58 nM

Compound: CC[C@H](C)[C@@H]1NC(=O)[C@@H]2CCCN2C(=O)[C@@H]2CCCN2C(=O)[C@H](Cc2ccccc2)NC(=O)[C@H](Cc2ccc(O)cc2)NC(=O)[C@H](CCC(N)=O)NC(=O)[C@H](CCCNC(N)=O)NC(=O)[C@@H](NC(=O)[C@H](CC(C)C)NC(=O)COCCOCCNC(=O)CN2CCN(CC(=O)O)CCN(CC(=O)O)CCN(CC(=O)O)CC2)CSSC[C@@H](C(N)=O)NC(=O)[C@H](CC(C)C)NC1=O [UPAR-229] ({DOTA-AEEA}-LC[Cit]QYFPPILC-NH2; disulfide 2-11)
Assay target: human uPAR (uPAR-Fc) (Homo sapiens, UniProt Q03405)
Kd: < 1.58 nM

====

Target: uPAR-expressing HEC-265 human endometrial adenocarcinoma cells (Homo sapiens)
Sequence (Q03405 23-335): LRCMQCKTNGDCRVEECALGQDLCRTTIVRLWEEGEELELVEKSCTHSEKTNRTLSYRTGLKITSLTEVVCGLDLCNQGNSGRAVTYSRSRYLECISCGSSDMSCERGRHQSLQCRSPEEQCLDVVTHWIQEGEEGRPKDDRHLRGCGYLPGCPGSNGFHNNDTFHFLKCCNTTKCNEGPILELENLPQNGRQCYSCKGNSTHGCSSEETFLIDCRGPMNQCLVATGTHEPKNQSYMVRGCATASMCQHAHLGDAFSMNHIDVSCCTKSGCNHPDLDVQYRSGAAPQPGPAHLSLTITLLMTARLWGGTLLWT
*1 amine or outer side, *2 acyl side, *3 side chain or, on linkers, in order; H or OH if unused. Where a SMILES comes first, the peptide text is derived from it. Bridges are numbered along the chain shown (N, C = ends). [ ]: non-standard residue; d: D form. The star is where a group is joined. DOTA = O=C(O)CN1CCN(CC(=O)O)CCN(CC(=O)*)CCN(CC(=O)O)CC1; Oic = O=C(O)[C@@H]1C[C@@H]2CCCC[C@@H]2N1; Phe(2-Cl) = N[C@@H](Cc1ccccc1Cl)C(=O)O; Ethylenediamine = C(CN[*:2])N[*:1]; Hyp = O=C(O)[C@@H]1C[C@@H](O)CN1; 2Thi = N[C@@H](Cc1cccs1)C(=O)O; Cha = N[C@@H](CC1CCCCC1)C(=O)O; Cit = NC(=O)NCCC[C@H](N)C(=O)O; Nva = CCC[C@H](N)C(=O)O; Pentanoyl = CCCCC(=O)*

Molecule: CCCCC(=O)N[C@H]1CSSC[C@@H](C(N)=O)NC(=O)[C@H](CCC)NC(=O)[C@H]([C@@H](C)CC)NC(=O)[C@@H]2C[C@@H](O)CN2C(=O)[C@@H]2CCCN2C(=O)[C@H](Cc2cccs2)NC(=O)[C@H](Cc2ccc(O)cc2)NC(=O)[C@H](CCCCNC(=O)CN2CCN(CC(=O)O)CCN(CC(=O)O)CCN(CC(=O)O)CC2)NC(=O)[C@H](CCCNC(N)=O)NC1=O [UPAR-360] (Pentanoyl-C[Cit]K(DOTA)Y[2Thi]P[Hyp]I[Nva]C-NH2; disulfide 1-10)
IC50: ≤ 10 nM

Molecule: CCCCC(=O)N[C@H]1CSSC[C@@H](C(N)=O)NC(=O)[C@H](CCC)NC(=O)[C@H]([C@@H](C)CC)NC(=O)[C@@H]2C[C@@H](O)CN2C(=O)[C@@H]2CCCN2C(=O)[C@H](Cc2ccccc2Cl)NC(=O)[C@H](Cc2ccc(O)cc2)NC(=O)[C@H](CCCCNC(=O)CN2CCN(CC(=O)O)CCN(CC(=O)O)CCN(CC(=O)O)CC2)NC(=O)[C@H](CCCNC(N)=O)NC1=O [UPAR-450] (Pentanoyl-C[Cit]K(DOTA)Y[Phe(2-Cl)]P[Hyp]I[Nva]C-NH2; disulfide 1-10)
IC50: ≤ 10 nM

Molecule: CCCCC(=O)N[C@H]1CSSC[C@@H](C(=O)NCCN)NC(=O)[C@H](CCC)NC(=O)[C@H]([C@@H](C)CC)NC(=O)[C@@H]2C[C@@H](O)CN2C(=O)[C@@H]2CCCN2C(=O)[C@H](Cc2ccccc2)NC(=O)[C@H](Cc2ccc(O)cc2)NC(=O)[C@H](CCC(N)=O)NC(=O)[C@H](CCCNC(N)=O)NC1=O [UPAR-430] (Pentanoyl-C[Cit]QYFP[Hyp]I[Nva]C-Ethylenediamine; disulfide 1-10)
IC50: 12.6 to 31.6 nM

Molecule: CCCCC(=O)N[C@H]1CSSC[C@@H](C(N)=O)NC(=O)[C@H](CCC)NC(=O)[C@H]([C@@H](C)CC)NC(=O)[C@@H]2C[C@@H](O)CN2C(=O)[C@H](CC2CCCCC2)NC(=O)[C@H](Cc2ccccc2)NC(=O)[C@H](Cc2ccc(O)cc2)NC(=O)[C@H](CCC(N)=O)NC(=O)[C@H](CCCNC(=N)N)NC1=O [UPAR-266] (Pentanoyl-CRQYF[Cha][Hyp]I[Nva]C-NH2; disulfide 1-10)
IC50: ≤ 10 nM

Molecule: CCCCC(=O)N[C@H]1CSSC[C@@H](C(N)=O)NC(=O)[C@H](CCC)NC(=O)[C@H]([C@@H](C)CC)NC(=O)[C@@H]2C[C@@H]3CCCC[C@@H]3N2C(=O)[C@@H]2CCCN2C(=O)[C@H](Cc2ccccc2)NC(=O)[C@H](Cc2ccc(O)cc2)NC(=O)[C@H](CCC(N)=O)NC(=O)[C@H](CCCNC(=N)N)NC1=O [UPAR-190] (Pentanoyl-CRQYFP[Oic]I[Nva]C-NH2; disulfide 1-10)
IC50: 12.6 to 31.6 nM

====

Biological target: uPAR-expressing HEC-265 human endometrial adenocarcinoma cells (Homo sapiens)
Where a SMILES comes first, the peptide text is derived from it. Bridges are numbered along the chain shown (N, C = ends). [ ]: non-standard residue; d: D form. The star is where a group is joined. DOTA = O=C(O)CN1CCN(CC(=O)O)CCN(CC(=O)*)CCN(CC(=O)O)CC1; NOTA = O=C(O)CN1CCN(CC(=O)O)CCN(CC(=O)*)CC1; Pro(cis-4-F) = O=C(O)[C@@H]1C[C@H](F)CN1; Dopa = N[C@@H](Cc1ccc(O)c(O)c1)C(=O)O; Hyp = O=C(O)[C@@H]1C[C@@H](O)CN1; Cha = N[C@@H](CC1CCCCC1)C(=O)O; Butoxycarbonyl = CCCCOC(=O)*; hCys = N[C@@H](CCS)C(=O)O; Nva = CCC[C@H](N)C(=O)O; Pentanoyl = CCCCC(=O)*

Compound: CCCCC(=O)N[C@H]1CSSC[C@@H](C(N)=O)NC(=O)[C@H](CCC)NC(=O)[C@H](Cc2ccccc2)NC(=O)[C@@H]2C[C@@H](O)CN2C(=O)[C@@H]2CCCN2C(=O)[C@H](Cc2ccccc2)NC(=O)[C@H](Cc2ccc(O)cc2)NC(=O)[C@H](CCC(N)=O)NC(=O)[C@H](CCCNC(=N)N)NC1=O [UPAR-447] (Pentanoyl-CRQYFP[Hyp]F[Nva]C-NH2; disulfide 1-10)
IC50: ≤ 0.01 µM
--
Compound: CCC[C@@H]1NC(=O)[C@H]([C@@H](C)CC)NC(=O)[C@@H]2C[C@@H](O)CN2C(=O)[C@@H]2CCCN2C(=O)[C@H](Cc2ccccc2)NC(=O)[C@H](Cc2ccc(O)cc2)NC(=O)[C@H](CCC(N)=O)NC(=O)[C@H](CCCNC(=N)N)NC(=O)[C@@H](NC(=O)[C@H](CC2CCCCC2)NC(C)=O)CSSC[C@@H](C(N)=O)NC1=O [UPAR-372] (Ac-[Cha]CRQYFP[Hyp]I[Nva]C-NH2; disulfide 2-11)
IC50: ≤ 0.01 µM
--
Compound: CCCCOC(=O)N[C@H]1CSSC[C@@H](C(N)=O)NC(=O)[C@H](CCC)NC(=O)[C@H]([C@@H](C)CC)NC(=O)[C@@H]2C[C@@H](O)CN2C(=O)[C@@H]2C[C@H](F)CN2C(=O)[C@H](Cc2ccccc2)NC(=O)[C@H](Cc2ccc(O)c(O)c2)NC(=O)[C@H](CCCCNC(=O)CN2CCN(CC(=O)O)CCN(CC(=O)O)CC2)NC(=O)[C@H]([C@@H](C)O)NC1=O [UPAR-250] (Butoxycarbonyl-CTK(NOTA)[Dopa]F[Pro(cis-4-F)][Hyp]I[Nva]C-NH2; disulfide 1-10)
IC50: ≤ 0.01 µM
--
Compound: CCCCC(=O)N[C@H]1CCSSC[C@@H](C(N)=O)NC(=O)[C@H](CCC)NC(=O)[C@H]([C@@H](C)CC)NC(=O)[C@@H]2C[C@@H](O)CN2C(=O)[C@@H]2CCCN2C(=O)[C@H](Cc2ccccc2)NC(=O)[C@H](Cc2ccc(O)cc2)NC(=O)[C@H](CCC(N)=O)NC(=O)[C@H](CCCNC(=N)N)NC1=O [UPAR-300] (Pentanoyl-[hCys]RQYFP[Hyp]I[Nva]C-NH2; disulfide 1-10)
IC50: 0.0126 to 0.0316 µM
--
Compound: CC[C@H](C)[C@@H]1NC(=O)[C@@H](C)NC(=O)[C@@H]2CCCN2C(=O)[C@H](Cc2ccccc2)NC(=O)[C@H](Cc2ccc(O)cc2)NC(=O)[C@H](CCCCNC(=O)CN2CCN(CC(=O)O)CCN(CC(=O)O)CCN(CC(=O)O)CC2)NC(=O)[C@H](CCCNC(=N)N)NC(=O)[C@@H](NC(=O)[C@H](CC(C)C)NC(C)=O)CSSC[C@@H](C(N)=O)NC(=O)[C@H](CC(C)C)NC1=O [UPAR-162] (Ac-LCRK(DOTA)YFP[dA]ILC-NH2; disulfide 2-11)
IC50: ≤ 0.01 µM
